target: wild type c-kit (Homo sapiens (Human), UniProt P10721); assay: PathScan phospho c-kit (Tyr719) sandwich ELISA in SCF-stimulated M-07e cells (pKIT assay); assay type: cell-based; settings: ELISA assay (values not marked *)
Sequence (P10721 26-976): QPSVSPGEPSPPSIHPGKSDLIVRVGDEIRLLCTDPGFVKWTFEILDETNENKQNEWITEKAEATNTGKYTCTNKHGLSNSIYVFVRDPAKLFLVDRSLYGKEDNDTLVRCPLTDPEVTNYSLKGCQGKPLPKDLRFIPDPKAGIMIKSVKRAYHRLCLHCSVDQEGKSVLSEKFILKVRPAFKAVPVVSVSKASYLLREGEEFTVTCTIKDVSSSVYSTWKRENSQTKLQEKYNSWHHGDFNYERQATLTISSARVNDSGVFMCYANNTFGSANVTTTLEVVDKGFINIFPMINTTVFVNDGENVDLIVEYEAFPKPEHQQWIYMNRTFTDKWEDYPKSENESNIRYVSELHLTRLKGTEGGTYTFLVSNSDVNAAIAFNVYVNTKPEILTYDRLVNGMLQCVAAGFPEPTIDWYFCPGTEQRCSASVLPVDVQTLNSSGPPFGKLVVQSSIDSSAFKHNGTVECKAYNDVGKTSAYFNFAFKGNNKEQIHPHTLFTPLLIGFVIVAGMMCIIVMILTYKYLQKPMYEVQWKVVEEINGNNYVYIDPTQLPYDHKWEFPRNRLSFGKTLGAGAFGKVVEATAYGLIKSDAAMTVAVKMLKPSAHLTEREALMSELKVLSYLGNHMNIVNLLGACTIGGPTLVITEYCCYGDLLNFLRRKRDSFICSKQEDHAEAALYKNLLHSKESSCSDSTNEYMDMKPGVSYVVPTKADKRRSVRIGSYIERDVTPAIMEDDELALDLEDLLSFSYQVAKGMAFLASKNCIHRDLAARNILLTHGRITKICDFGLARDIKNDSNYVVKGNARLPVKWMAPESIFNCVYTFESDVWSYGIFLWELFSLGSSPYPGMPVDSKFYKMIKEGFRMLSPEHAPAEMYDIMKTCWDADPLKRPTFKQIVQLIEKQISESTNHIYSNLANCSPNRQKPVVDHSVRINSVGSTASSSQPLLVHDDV
pIC50: −log10 of the molar value.
Entry flag: Condition met if pIC50 reaches 8; Condition not met if it does not.

compound=CCn1nnc(-c2cc(NC(=O)c3cnn4ccc(-c5c(C)nn(CC(C)(C)O)c5C)cc34)c(C)cc2F)n1 assigned_class="Condition met"
compound=Cc1ccc(-c2nnn(C3CC(F)(F)C3)n2)cc1NC(=O)c1cnn2ccc(NCC(F)(F)CO)cc12 assigned_class="Condition met"
compound=COCCOCCNc1ccn2ncc(C(=O)Nc3cc(-c4nnn(C5CN(C(=O)OC)C5)n4)ccc3C)c2c1 assigned_class="Condition not met"

Q: Please tell me: is the compound COC(=O)N1CC(n2nnc(-c3ccc(C)c(NC(=O)c4cnn5ccc(OCCO)cc45)c3)n2)C1 at or over 8 in terms of pIC50?
Ans: Condition not met

Q: Please tell me: is the compound O=C(Nc1cc(-c2nnn(CC3CC3(F)F)n2)ccc1Cl)c1cnn2ccccc12 (stereo not shown) at or over 8 in terms of pIC50?
Ans: Condition met
